These entries and their values trace back to ChEMBL document CHEMBL5257020.

System: PANC-1
Assay: Cytotoxicity against human PANC-1 cells assessed as inhibition of cell proliferation incubated for 4 hrs by MTS assay
Format: functional, cell-based
Conditions: PANC-1, 4 h
Where a SMILES comes first, the peptide text is derived from it. [ ]: non-standard residue; d: D form. ξ: configuration not given here. ξBip = NC(Cc1ccc(-c2ccccc2)cc1)C(=O)O; ξDip = NC(C(=O)O)C(c1ccccc1)c1ccccc1
reported_endpoint: pIC50
pIC50 (log units): -log10 of the concentration in mol/L.

## Input What does the record list as pIC50 for NCCCC[C@H](NC(=O)[C@H](Cc1c[nH]c2ccccc12)NC(=O)[C@H](CCCCN)NC(=O)[C@H](CCCCN)NC(=O)C(NC(=O)[C@H](Cc1c[nH]c2ccccc12)NC(=O)[C@H](CCCCN)NC(=O)[C@H](CCCCN)NC(=O)[C@@H](N)Cc1c[nH]c2ccccc12)C(c1ccccc1)c1ccccc1)C(N)=O (some centres not stated) (H-WKKW[ξDip]KKWK-NH2) ?
## Output 4.77

## Input What does the record list as pIC50 for NCCCC[C@H](NC(=O)[C@H](Cc1c[nH]c2ccccc12)NC(=O)[C@H](Cc1c[nH]c2ccccc12)NC(=O)[C@H](CCCCN)NC(=O)[C@H](CCCCN)NC(=O)[C@H](Cc1c[nH]c2ccccc12)NC(=O)C(Cc1ccc(-c2ccccc2)cc1)NC(=O)[C@H](CCCCN)NC(=O)[C@@H](N)CCCCN)C(N)=O (some centres not stated) (H-KK[ξBip]WKKWWK-NH2) ?
## Output 4.97
